# experimental target: pooled human IgG (human IgG1, 2, 3 and 4)
observable: Enzyme Activity Endpoint Assay (purified): Fc

[
  {
    "protein": "PRT-637 (protein) MQITSVWTKGVTPLTPEQFRYNNEDVIHAPYLAHQGWYDITKAFDGGDGLLCGAATAGNMLHWWFDQNKTEIEAYLSKHPEKQKIIFNNQELFDLKAAIDTKDSQTNSQLFNYFRDKAFPNLSARQKGVMPDLVLDMFINGYYLNVFKTQSTDVNRPYQDKDKRGGIFDAVFTRGDQTTLLTARHDLKNKGLNDISTIIKQELTEGRALALSHTYANVSISHVINLWGADFNAEGNLEAIYVTDSDAGNGIGMKKYFVGINAHGHVAISAKKIEGENIGAQVLGLFTLSSGKDIWQKLSLEHHHHHH",
    "test value": "188 ng/µL"
  }
]

Turning to the following protein.
Which measured Enzyme Activity Endpoint Assay (purified): Fc value corresponds to PRT-509 (protein) MITSVWTKGVTPPTDFRKIVDGNIAYYHAPYKAGQGWYDITKTFNGKDDLLCGAATAGNMLHWWFDQNKEEIEAYLKKHPEKQKIMFGDQELLDVRKVINTKDSQTNSALFNYFKDKAFPNLSARRLGVMPDLVLDMFINGYYLNVYKTQTTDVNRTYQTKDRRGGIFDAVFTRGDQSKLLTERHDFKEKTLKEISDLIKQELTEGKALGLSHTYANVRINHVINLWGADFDSNGNLEAIYVTDSDSNASIGMKKYFVGVNSAGKVAISAKEIKEDNIGAQVLGLFTLSTGQDIWNQTNLEHHHHHH ?
26 ng/µL
